Entries and their measured Ki follow.
assay_target: D4R (hD4.4R) (Homo sapiens)
Construct: gene DRD4; human cloned receptor stably expressed in HEK293 cells; membranes
protocol_summary: [3H]N-methylspiperone competition, membranes
Assay type: binding
conditions: read-out: pKi / D4R (converted)
Field format: number, assumed nM, no unit text.

Here's what some known entries look like.
Asked: For D4R (hD4.4R) (Homo sapiens), provide Ki of CCCCC1CCN(CCN2C(=O)CCc3ccccc32)CC1 please.
Given back: 17.4

Asked: Same question, O=C1CCc2ccccc2N1CCCN1CC=C(c2ccccc2)CC1 this time
Given back: 1.51

Asked: Same question for O=C1CCc2ccccc2N1CCN1CCC(Cc2ccccc2)CC1 please.
Given back: 0.661

Asked: CCCCC1CCN(CCCCN2C(=O)CCc3ccccc32)CC1 ?
Given back: 23.4

Asked: Record: O=C1CCc2ccccc2N1CC1CCN(Cc2ccccc2)CC1
Given back: 275

Others:
Asked: I'm curious: which Ki was measured for O=C1CCc2ccccc2N1CCC1CCN(Cc2ccccc2)CC1 tested on D4R (hD4.4R) (Homo sapiens)?
Given back: 302

Asked: Try this compound next: O=C1CCc2ccccc2N1CCCC1CCN(Cc2ccccc2)CC1
Given back: 1.62

====

assay_target: D4R (hD4.4R) (Homo sapiens, UniProt P21917)
Construct: gene DRD4; human cloned receptor stably expressed in HEK293 cells; membranes
Sequence (P21917 whole entry): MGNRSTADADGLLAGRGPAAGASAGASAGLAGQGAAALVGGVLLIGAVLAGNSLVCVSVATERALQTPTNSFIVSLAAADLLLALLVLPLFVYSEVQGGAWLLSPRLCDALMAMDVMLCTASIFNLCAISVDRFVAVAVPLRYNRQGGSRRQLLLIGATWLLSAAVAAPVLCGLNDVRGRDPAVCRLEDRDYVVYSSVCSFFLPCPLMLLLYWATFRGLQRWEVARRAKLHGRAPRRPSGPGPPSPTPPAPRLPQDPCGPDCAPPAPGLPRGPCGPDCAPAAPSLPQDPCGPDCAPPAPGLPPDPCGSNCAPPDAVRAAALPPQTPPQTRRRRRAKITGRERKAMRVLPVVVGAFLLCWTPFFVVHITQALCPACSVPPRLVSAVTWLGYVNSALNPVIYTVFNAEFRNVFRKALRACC
protocol_summary: [3H]N-methylspiperone competition, membranes
Assay type: binding
conditions: read-out: pKi / D4R (converted)
Rule: Ki below 50 nM gives Y, anything at or above gives N.

Study these solved cases before continuing.
Asked: Would you kindly verify if Ki of CCCCC1CCN(CCCCCN2C(=O)CCc3ccccc32)CC1 is strictly less than 50 nM?
Given back: N

Asked: Now give it for O=C1CCc2ccccc2N1CCCCCN1CCC(Cc2ccccc2)CC1 too.
Given back: Y

Asked: Can you handle O=C1CCc2ccccc2N1CCCCN1CCC(Cc2ccccc2)CC1 next?
Given back: Y

Asked: And for O=C1CCc2ccccc2N1CCCN1CCc2ccccc2C1 ?
Given back: Y

Next:
Asked: Below 50 nM on Ki? Entry CCCCN1CCC(CCCN2C(=O)CCc3ccccc32)CC1
Given back: N

====

assay_target: D3R (hD3R) (Homo sapiens, UniProt P35462)
Construct: gene DRD3; human cloned receptor stably expressed in HEK293 cells; membranes
Sequence (P35462 whole entry): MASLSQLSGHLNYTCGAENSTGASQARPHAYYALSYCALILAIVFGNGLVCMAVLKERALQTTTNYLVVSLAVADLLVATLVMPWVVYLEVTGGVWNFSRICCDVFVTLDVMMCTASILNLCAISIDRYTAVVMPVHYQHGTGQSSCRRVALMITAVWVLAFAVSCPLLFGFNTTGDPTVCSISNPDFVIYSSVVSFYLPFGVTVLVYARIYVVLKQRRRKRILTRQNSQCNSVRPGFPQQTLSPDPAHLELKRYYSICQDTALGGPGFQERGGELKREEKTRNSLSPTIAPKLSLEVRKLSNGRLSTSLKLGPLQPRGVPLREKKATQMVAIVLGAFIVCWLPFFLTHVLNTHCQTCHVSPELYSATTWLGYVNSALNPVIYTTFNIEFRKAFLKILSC
protocol_summary: [3H]N-methylspiperone competition, membranes
Format: binding
conditions: read-out: pKi / D3R (converted)
Each entry below carries its recorded Ki.
Kindly write the number and append the unit.

// solved cases for Ki follow
Asked: Report Ki for O=C1CCc2ccccc2N1CCCN1CC=C(c2ccccc2)CC1 please.
Given back: 245 nM

Asked: Now consider O=C1CCc2ccccc2N1CCC1CCN(Cc2ccccc2)CC1 and answer again.
Given back: 8130 nM

Asked: What about CCCCC1CCN(CCCCCN2C(=O)CCc3ccccc32)CC1 ?
Given back: 288 nM

Asked: What would you report for CCCCN1CCC(CCCN2C(=O)CCc3ccccc32)CC1 ?
Given back: 1070 nM

Asked: Same question, O=C1CCc2ccccc2N1CCN1CCC(Cc2ccccc2)CC1 this time
Given back: 933 nM

Asked: Could you do the same for CCCCC1CCN(CCN2C(=O)CCc3ccccc32)CC1 , please?
Given back: 13200 nM

Asked: Do the same for CCCCC1CCN(CCCCN2C(=O)CCc3ccccc32)CC1 please
Given back: 309 nM

Asked: Input O=C1CCc2ccccc2N1CCCCCN1CCC(Cc2ccccc2)CC1
Given back: 407 nM

Asked: Can you check O=C1CCc2ccccc2N1CCCC1CCN(Cc2ccccc2)CC1 next?
Given back: 2000 nM

Asked: Also need O=C1CCc2ccccc2N1CCCN1CCc2ccccc2C1 , thanks.
Given back: 229 nM

Others:
Asked: Which Ki value is on record for O=C1CCc2ccccc2N1CCCCN1CCC(Cc2ccccc2)CC1 ?
Given back: 302 nM

Asked: Now consider O=C1CCc2ccccc2N1CC1CCN(Cc2ccccc2)CC1 .
Given back: 7590 nM
